Cited source: the supplement of paper PMC9732359

assay: protein stability index of a GFP-peptide fusion (yeast GPS) (PSI 1-4); higher = more stable; sorted into four equal gates, so the index is relative within each strain; conditions: ubr1∆
Decide by protein stability index: equal to or exceeding 3 means Met, less means Not met.

// below: answered sequences
TQEEVELPLEDFKAKYC [RPB5]    Met
PLIQNSMRTIMKANPAL [PRP8]    Not met
FSNVELPQCIIPSSYIK [ARP7]    Not met

Query: Identify whether the reported protein stability index of the following sequence is 3 or greater: SLNEKNALHTERLHELK [SMC1]
Reply: Not met

Query: Identify whether the reported protein stability index of the following sequence is 3 or greater: LRLDGHTKSDERSELLR [SNF2]
Reply: Met

Query: Identify whether the reported protein stability index of the following sequence is 3 or greater: LEAKRKVSSAEYYAKKR [RPL16A]
Reply: Met

Query: Identify whether the reported protein stability index of the following sequence is 3 or greater: SNDPDVNNTRRRVYNRV [BRN1]
Reply: Met

Query: Identify whether the reported protein stability index of the following sequence is 3 or greater: RRISSMPGGYFHSEISP [YAR002W/NUP60]
Reply: Met

Query: Identify whether the reported protein stability index of the following sequence is 3 or greater: EVSTSTSMTGDANLLEE [SWI3]
Reply: Met

Query: Identify whether the reported protein stability index of the following sequence is 3 or greater: IGEGAKLVRDAFALAKE [RPT5]
Reply: Met

Query: Identify whether the reported protein stability index of the following sequence is 3 or greater: AFLSFLAYRNYWTQYLG [YJL039C/NUP192]
Reply: Not met

Query: Identify whether the reported protein stability index of the following sequence is 3 or greater: NYTDLIWFPEDFISPEL [MED1]
Reply: Not met

Query: Identify whether the reported protein stability index of the following sequence is 3 or greater: KDNAIYNGFIDIFSNLS [YCS4]
Reply: Not met

Query: Identify whether the reported protein stability index of the following sequence is 3 or greater: SKKDPRILKNVSPNDNN [YMR153W/NUP53]
Reply: Not met

Query: Identify whether the reported protein stability index of the following sequence is 3 or greater: KTFEIKEIKTNEYVIKT [YMR129W/POM152]
Reply: Not met

Query: Identify whether the reported protein stability index of the following sequence is 3 or greater: GENAAEKPDNSNHNNLN [SNF2]
Reply: Met

Query: Identify whether the reported protein stability index of the following sequence is 3 or greater: VLYYRDARSSRNFSLAI [PRE4]
Reply: Not met

Query: Identify whether the reported protein stability index of the following sequence is 3 or greater: GHIPWHILAVKKMMNTL [SSN2]
Reply: Not met

Query: Identify whether the reported protein stability index of the following sequence is 3 or greater: RTMDDIKDSVREVGTKF [ECM29]
Reply: Met

Query: Identify whether the reported protein stability index of the following sequence is 3 or greater: IAQSKKKNNKIKESSKK [SRP21]
Reply: Met

Query: Identify whether the reported protein stability index of the following sequence is 3 or greater: IVLDEVRNKSYPVYTRL [DIS3]
Reply: Not met

Query: Identify whether the reported protein stability index of the following sequence is 3 or greater: EGLDELPKIIQLQGPQW [SOH1]
Reply: Met

Query: Identify whether the reported protein stability index of the following sequence is 3 or greater: AVHNGGRKHVAALRTVK [RPL9A]
Reply: Not met

Query: Identify whether the reported protein stability index of the following sequence is 3 or greater: LHVVSKSSIEKDPSPEI [SIN4]
Reply: Met

Query: Identify whether the reported protein stability index of the following sequence is 3 or greater: MVATVKRTIRIKTQQHI [TAF14]
Reply: Not met

Query: Identify whether the reported protein stability index of the following sequence is 3 or greater: QAYEEIISSNENALIEL [YIL149C/MLP2]
Reply: Met
